B1: Hairpin Ribozyme (parent)
chain: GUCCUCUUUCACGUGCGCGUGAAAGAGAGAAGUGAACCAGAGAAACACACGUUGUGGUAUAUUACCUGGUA

variants of: B1; assay: self-cleavage, relative activity (ratio to wild type); higher = more cleavage; co-transcriptional
Measurement label: self-cleavage

Variant annotation	Measurement label	Number
U52C U58C	self-cleavage	0.755
A31G A39C	self-cleavage	0.253
A26U G56A	self-cleavage	0.129
G1A A39U	self-cleavage	0.154
G42U A43C	self-cleavage	0.179
C10A U33A	self-cleavage	0.153
G1C C48G	self-cleavage	0.086
C18A U62G	self-cleavage	0.138
U52G U55C	self-cleavage	0.193
G29U A36C	self-cleavage	0.101
C10G U14G	self-cleavage	0.378
